Provide the recorded folding stability dG for the entries that follow.
B1: HEEH_KT_rd6_3546 (parent)
chain: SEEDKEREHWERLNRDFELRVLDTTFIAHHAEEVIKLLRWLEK

variants of: B1; test: folding stability dG (cDNA display proteolysis); higher = more stable; conditions: PBS, room temperature
Give bare numbers, in kcal/mol.

Example entries begin here.
SEEDKEREHWERLNRDFELRVLFTTFIAHHAEEVIKLLRWLEK [D23F]; 3.18
SEEDKEREHWERLNRDFELRVLDTTFIAHHAEEVIKLLRELEK [W40E]; 0.585
SEEDKEREHWERLNHDFELRVLDTTFIAHHAEEVIKLLRWLEK [R15H]; 1.42
SEEDKEREHWERLNRDFELRVLDTTFIAHHAIEVIKLLRWLEK [E32I]; 1.73
SEEDKEREHWERLNRDFELRVLDTTFIAHHAEPVIKLLRWLEK [E33P]; 0.926

Dear reader, for each entry below, please note its folding stability dG.
1. SEEDKEREHWERLNRDHELRVLDTTFIAHHAEEVIKLLRWLEK [F17H]
2. SEEDKEREHWERLNRDFELRVLDTTFIAHHAELVIKLLRWLEK [E33L]
3. SEEDKEREHWERLNFDFELRVLDTTFIAHHAEEVIKLLRWLEK [R15F]
4. SEEDKEREHWERLNRDFELRVLDTTFIAHHACEVIKLLRWLEK [E32C]
5. SEEDKEREQWERLNRDFELRVLDTTFIAHHAEEVIKLLRWLEK [H9Q]
6. SEEDKEREHWERLNRDFELRVLDTTFIAHHAEEVIKLRRWLEK [L38R]
7. SEEDKEREHWERLNRDFELRVLDTTFIAHHAEEHIKLLRWLEK [V34H]

Resp:
[0.86, 2.05, 2.37, 1.31, 1.35, 0.8, 0.255]

Dear reader, for each entry below, please note its folding stability dG.
1. SEEDKEREHWERLNRDFELRVLDTTFIAHHAEEVIKLLRRLEK [W40R]
2. SEEDKEREHWERLNRDFELRVLDRTFIAHHAEEVIKLLRWLEK [T24R]
3. SEEDKEREHWERLNRAFELRVLDTTFIAHHAEEVIKLLRWLEK [D16A]
4. SEEDKEREHWERLNRDFELRVLDTTFIAHWAEEVIKLLRWLEK [H30W]
5. SEEDKEREHWERLNRDFELRVLDTTFIAHHAEEVIKLLRWAEK [L41A]
6. SEEDKEREHWERLNRDFELRVLDTTFIAHHAEEVIKLLRWNEK [L41N]

Resp:
0.934
1.25
1.81
2.69
0.58
-0.295

Dear reader, for each entry below, please note its folding stability dG.
1. SEEDKEREHWERLNRDFELRVLDTTFIAHHAEEVIHLLRWLEK [K36H]
2. SEEDKEREHWERLNRDFELRVLDTTFIAHHAEEVIKLLRFLEK [W40F]
3. SEEDKEREHWERLNRFFELRVLDTTFIAHHAEEVIKLLRWLEK [D16F]
4. SEEDKEREHWERLNRDFELRVLDTTFIAHHSEEVIKLLRWLEK [A31S]

Resp:
1.24
1.1
1.96
0.872
